target: human MC3R (human, UniProt P41968 1-323); experiment: cell-based or functional assay
Sequence (P41968 whole entry): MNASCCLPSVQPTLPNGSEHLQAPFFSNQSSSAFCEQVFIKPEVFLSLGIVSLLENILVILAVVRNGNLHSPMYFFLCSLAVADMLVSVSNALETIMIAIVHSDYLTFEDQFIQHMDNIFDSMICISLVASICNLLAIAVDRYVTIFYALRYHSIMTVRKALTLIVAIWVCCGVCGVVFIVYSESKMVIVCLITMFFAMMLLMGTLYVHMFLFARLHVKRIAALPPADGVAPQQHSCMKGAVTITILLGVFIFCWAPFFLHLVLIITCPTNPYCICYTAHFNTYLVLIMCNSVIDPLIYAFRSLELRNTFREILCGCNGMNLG
Non-standard residues stand in square brackets, D forms with d. PKcap1 = N-terminal cap C18 diacid-γGlu-mPEG2; Phe(4-I) = N[C@@H](Cc1ccc(I)cc1)C(=O)O; d2Nal = N[C@H](Cc1ccc2ccccc2c1)C(=O)O; Nle = CCCC[C@H](N)C(=O)O; dAbu = CC[C@@H](N)C(=O)O; R1 = not defined here
MC3R cAMP (EC50) of 60 nM or higher: YES. Under 60 nM: NO.

Query :: Is it the case that R1-V[Nle][dA]HFR[dW]DRFG-OH (reading uncertain) [CTX-1149 (R1, SEQ ID NO 66)] has MC3R cAMP (EC50) reaching or exceeding 60 nM?
Result :: YES

Query :: Is it the case that Ac-[Nle][dA]HFR[dW]DR[dF]K-OH (SMILES CCCC[C@H](NC(C)=O)C(=O)N[C@H](C)C(=O)N[C@@H](Cc1c[nH]cn1)C(=O)N[C@@H](Cc1ccccc1)C(=O)N[C@@H](CCCNC(=N)N)C(=O)N[C@H](Cc1c[nH]c2ccccc12)C(=O)N[C@@H](CC(=O)O)C(=O)N[C@@H](CCCNC(=N)N)C(=O)N[C@H](Cc1ccccc1)C(=O)N[C@@H](CCCCN)C(=O)O) [CTX-1160] has MC3R cAMP (EC50) reaching or exceeding 60 nM?
Result :: NO

Query :: Is it the case that Ac-[Nle][dA]HFR[dW]DRFG-OH (SMILES CCCC[C@H](NC(C)=O)C(=O)N[C@H](C)C(=O)N[C@@H](Cc1c[nH]cn1)C(=O)N[C@@H](Cc1ccccc1)C(=O)N[C@@H](CCCNC(=N)N)C(=O)N[C@H](Cc1c[nH]c2ccccc12)C(=O)N[C@@H](CC(=O)O)C(=O)N[C@@H](CCCNC(=N)N)C(=O)N[C@@H](Cc1ccccc1)C(=O)NCC(=O)O) [CTX-1122] has MC3R cAMP (EC50) reaching or exceeding 60 nM?
Result :: NO

Query :: Is it the case that Ac-[Nle][dA]H[Phe(4-I)]R[d2Nal]DRFG-OH (SMILES CCCC[C@H](NC(C)=O)C(=O)N[C@H](C)C(=O)N[C@@H](Cc1c[nH]cn1)C(=O)N[C@@H](Cc1ccc(I)cc1)C(=O)N[C@@H](CCCNC(=N)N)C(=O)N[C@H](Cc1ccc2ccccc2c1)C(=O)N[C@@H](CC(=O)O)C(=O)N[C@@H](CCCNC(=N)N)C(=O)N[C@@H](Cc1ccccc1)C(=O)NCC(=O)O) [CTX-1502] has MC3R cAMP (EC50) reaching or exceeding 60 nM?
Result :: NO

Query :: Is it the case that Ac-[Nle][dA]HFR[dW][dF]-NH2 (SMILES CCCC[C@H](NC(C)=O)C(=O)N[C@H](C)C(=O)N[C@@H](Cc1c[nH]cn1)C(=O)N[C@@H](Cc1ccccc1)C(=O)N[C@@H](CCCNC(=N)N)C(=O)N[C@H](Cc1c[nH]c2ccccc12)C(=O)N[C@H](Cc1ccccc1)C(N)=O) [CTX-1542] has MC3R cAMP (EC50) reaching or exceeding 60 nM?
Result :: YES

Query :: Is it the case that Ac-[Nle][dA]HFR[dW]D-NH2 (SMILES CCCC[C@H](NC(C)=O)C(=O)N[C@H](C)C(=O)N[C@@H](Cc1c[nH]cn1)C(=O)N[C@@H](Cc1ccccc1)C(=O)N[C@@H](CCCNC(=N)N)C(=O)N[C@H](Cc1c[nH]c2ccccc12)C(=O)N[C@@H](CC(=O)O)C(N)=O) [CTX-1123] has MC3R cAMP (EC50) reaching or exceeding 60 nM?
Result :: YES

Query :: Is it the case that Ac-[Nle][dP]HFR[dW]DRFG-OH (SMILES CCCC[C@H](NC(C)=O)C(=O)N1CCC[C@@H]1C(=O)N[C@@H](Cc1c[nH]cn1)C(=O)N[C@@H](Cc1ccccc1)C(=O)N[C@@H](CCCNC(=N)N)C(=O)N[C@H](Cc1c[nH]c2ccccc12)C(=O)N[C@@H](CC(=O)O)C(=O)N[C@@H](CCCNC(=N)N)C(=O)N[C@@H](Cc1ccccc1)C(=O)NCC(=O)O) [CTX-1184] has MC3R cAMP (EC50) reaching or exceeding 60 nM?
Result :: YES

Query :: Is it the case that PKcap1-G[Nle][dA]HFR[dW]DR[dF]G-OH [CTX-1153] has MC3R cAMP (EC50) reaching or exceeding 60 nM?
Result :: YES

Query :: Is it the case that H-VMGHFR[dW]DRFG-OH [CTX-1546] has MC3R cAMP (EC50) reaching or exceeding 60 nM?
Result :: NO

Query :: Is it the case that Ac-[Nle][dAbu]H[Phe(4-I)]R[dW]DRFG-OH (SMILES CCCC[C@H](NC(C)=O)C(=O)N[C@H](CC)C(=O)N[C@@H](Cc1c[nH]cn1)C(=O)N[C@@H](Cc1ccc(I)cc1)C(=O)N[C@@H](CCCNC(=N)N)C(=O)N[C@H](Cc1c[nH]c2ccccc12)C(=O)N[C@@H](CC(=O)O)C(=O)N[C@@H](CCCNC(=N)N)C(=O)N[C@@H](Cc1ccccc1)C(=O)NCC(=O)O) [CTX-1191] has MC3R cAMP (EC50) reaching or exceeding 60 nM?
Result :: NO

Query :: Is it the case that Ac-[Nle][dA]HFR[dW]DR[dF]G-OH (SMILES CCCC[C@H](NC(C)=O)C(=O)N[C@H](C)C(=O)N[C@@H](Cc1c[nH]cn1)C(=O)N[C@@H](Cc1ccccc1)C(=O)N[C@@H](CCCNC(=N)N)C(=O)N[C@H](Cc1c[nH]c2ccccc12)C(=O)N[C@@H](CC(=O)O)C(=O)N[C@@H](CCCNC(=N)N)C(=O)N[C@H](Cc1ccccc1)C(=O)NCC(=O)O) [CTX-1145] has MC3R cAMP (EC50) reaching or exceeding 60 nM?
Result :: NO

Query :: Is it the case that YVXXHFRWDRFG (Nle at 3; D-Abu at 4; D-Trp at 8) [CTX-1135] has MC3R cAMP (EC50) reaching or exceeding 60 nM?
Result :: NO
